target: C1a receptor (C1a-type calcitonin receptor) (Rattus norvegicus, UniProt P32214); construct: expressed in transfected cells; test: biochemical; settings: HEK293 plasma membranes, [35S]-GTPγS 200 pM; read-out: ED50 (nM) Example B (C1a GTPγS)
Sequence (P32214 25-479 isoform P32214-2 limits assumed): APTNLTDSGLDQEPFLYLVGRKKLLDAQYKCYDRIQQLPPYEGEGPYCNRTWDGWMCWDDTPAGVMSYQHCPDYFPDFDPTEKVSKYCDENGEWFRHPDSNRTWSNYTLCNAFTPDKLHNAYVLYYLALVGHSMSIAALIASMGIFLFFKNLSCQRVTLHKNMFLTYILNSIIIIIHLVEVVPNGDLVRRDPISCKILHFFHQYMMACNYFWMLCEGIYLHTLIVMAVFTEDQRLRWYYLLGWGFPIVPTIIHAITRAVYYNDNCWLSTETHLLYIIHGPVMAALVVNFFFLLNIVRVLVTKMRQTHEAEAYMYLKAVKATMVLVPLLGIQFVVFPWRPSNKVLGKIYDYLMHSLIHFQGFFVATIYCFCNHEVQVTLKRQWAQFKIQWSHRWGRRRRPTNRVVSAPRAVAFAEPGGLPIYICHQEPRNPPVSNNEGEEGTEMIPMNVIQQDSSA
Where a SMILES comes first, the peptide text is derived from it. Bridges are numbered along the chain shown (N, C = ends). The star is where a group is joined. Pentanoyl(4-Me) = CC(C)CCC(=O)*
Observation type: EC50

Compound	Observation type	Test value
CC(C)CCC(=O)N[C@@H](CC(C)C)C(=O)N[C@@H](CO)C(=O)N[C@H](C(=O)N[C@@H](C)C(=O)N[C@@H](C)C(=O)N[C@H](C(=O)N[C@@H](C)C(=O)N[C@@H](CCCNC(=N)N)C(=O)N[C@@H](CC(C)C)C(=O)N[C@@H](C)C(=O)N[C@@H](C)C(=O)N[C@@H](Cc1ccccc1)C(=O)N[C@@H](CC(C)C)C(=O)N[C@@H](C)C(=O)N[C@@H](CCCNC(=N)N)C(=O)N[C@@H](CO)C(N)=O)[C@@H](C)O)[C@@H](C)O [Example 4] ({Pentanoyl(4-Me)}-LSTAATARLAAFLARS-NH2)	EC50	0.73 nM
CC(C)C[C@H](NC(=O)[C@H](CCCNC(=N)N)NC(=O)[C@H](C)NC(=O)[C@@H](NC(=O)[C@H](C)NC(=O)[C@H](C)NC(=O)[C@@H](NC(=O)[C@H](CO)NC(=O)[C@@H](N)CC(C)C)[C@@H](C)O)[C@@H](C)O)C(=O)N[C@@H](C)C(=O)N[C@@H](C)C(=O)N[C@@H](Cc1ccccc1)C(=O)N[C@@H](CC(C)C)C(=O)N[C@@H](C)C(=O)N[C@@H](CCCNC(=N)N)C(=O)N[C@@H](CO)C(N)=O [Example 6] (H-LSTAATARLAAFLARS-NH2)	EC50	0.58 nM
CC(C)C[C@H](NC(=O)[C@H](CCCNC(=N)N)NC(=O)[C@H](C)NC(=O)[C@@H](NC(=O)[C@H](C)NC(=O)[C@@H]1CSSC[C@H](N)C(=O)N[C@@H](CC(N)=O)C(=O)N[C@@H]([C@@H](C)O)C(=O)N[C@@H](C)C(=O)N[C@@H]([C@@H](C)O)C(=O)N1)[C@@H](C)O)C(=O)N[C@@H](C)C(=O)N[C@@H](C)C(=O)N[C@@H](Cc1ccccc1)C(=O)N[C@@H](CC(C)C)C(=O)N[C@@H](C)C(=O)N[C@@H](CCCNC(=N)N)C(=O)N[C@@H](CO)C(N)=O [Example 3] (H-CNTATCATARLAAFLARS-NH2; disulfide 1-6)	EC50	1.2 nM
CC(C)C[C@H](NC(=O)[C@H](CCCNC(=N)N)NC(=O)[C@H](C)NC(=O)[C@@H](NC(=O)[C@H](C)NC(=O)[C@@H]1CSSC[C@H](N)C(=O)N[C@@H](CC(N)=O)C(=O)N[C@@H]([C@@H](C)O)C(=O)N[C@@H](C)C(=O)N[C@@H]([C@@H](C)O)C(=O)N1)[C@@H](C)O)C(=O)N[C@@H](C)C(=O)N[C@@H](C)C(=O)N[C@@H](Cc1ccccc1)C(=O)N[C@@H](CC(C)C)C(=O)N[C@@H](C)C(=O)N[C@@H](CCCNC(=N)N)C(N)=O [Example 7] (H-CNTATCATARLAAFLAR-NH2; disulfide 1-6)	EC50	2.2 nM

---

target: C1a receptor (C1a-type calcitonin receptor) (Rattus norvegicus); construct: expressed in transfected cells; assay: C1a/293 competitive binding, displacement of [125I]-human calcitonin (Example C); conditions: HEK293 plasma membranes (C1a/293), [125I]-human calcitonin 20 pM
Where a SMILES comes first, the peptide text is derived from it. Bridges are numbered along the chain shown (N, C = ends). The star is where a group is joined. Pentanoyl(4-Me) = CC(C)CCC(=O)*
Observation type: IC50 (nM)

Compound	Result unit	Test value
CC(C)CCC(=O)N[C@@H](CC(C)C)C(=O)N[C@@H](CO)C(=O)N[C@H](C(=O)N[C@@H](C)C(=O)N[C@@H](C)C(=O)N[C@H](C(=O)N[C@@H](C)C(=O)N[C@@H](CCCNC(=N)N)C(=O)N[C@@H](CC(C)C)C(=O)N[C@@H](C)C(=O)N[C@@H](C)C(=O)N[C@@H](Cc1ccccc1)C(=O)N[C@@H](CC(C)C)C(=O)N[C@@H](C)C(=O)N[C@@H](CCCNC(=N)N)C(=O)N[C@@H](CO)C(N)=O)[C@@H](C)O)[C@@H](C)O [Example 4] ({Pentanoyl(4-Me)}-LSTAATARLAAFLARS-NH2)	nM	0.66
CC(C)C[C@H](NC(=O)[C@H](CCCNC(=N)N)NC(=O)[C@H](C)NC(=O)[C@@H](NC(=O)[C@H](C)NC(=O)[C@@H]1CSSC[C@H](N)C(=O)N[C@@H](CC(N)=O)C(=O)N[C@@H]([C@@H](C)O)C(=O)N[C@@H](C)C(=O)N[C@@H]([C@@H](C)O)C(=O)N1)[C@@H](C)O)C(=O)N[C@@H](C)C(=O)N[C@@H](C)C(=O)N[C@@H](Cc1ccccc1)C(=O)N[C@@H](CC(C)C)C(=O)N[C@@H](C)C(=O)N[C@@H](CCCNC(=N)N)C(=O)N[C@@H](CO)C(N)=O [Example 3] (H-CNTATCATARLAAFLARS-NH2; disulfide 1-6)	nM	0.19
CC(C)C[C@H](NC(=O)[C@H](CCCNC(=N)N)NC(=O)[C@H](C)NC(=O)[C@@H](NC(=O)[C@H](C)NC(=O)[C@@H]1CSSC[C@H](N)C(=O)N[C@@H](CC(N)=O)C(=O)N[C@@H]([C@@H](C)O)C(=O)N[C@@H](C)C(=O)N[C@@H]([C@@H](C)O)C(=O)N1)[C@@H](C)O)C(=O)N[C@@H](C)C(=O)N[C@@H](C)C(=O)N[C@@H](Cc1ccccc1)C(=O)N[C@@H](CC(C)C)C(=O)N[C@@H](C)C(=O)N[C@@H](CCCNC(=N)N)C(N)=O [Example 7] (H-CNTATCATARLAAFLAR-NH2; disulfide 1-6)	nM	2.7
CC(C)C[C@H](NC(=O)[C@H](CCCNC(=N)N)NC(=O)[C@H](C)NC(=O)[C@@H](NC(=O)[C@H](C)NC(=O)[C@H](C)NC(=O)[C@@H](NC(=O)[C@H](CO)NC(=O)[C@@H](N)CC(C)C)[C@@H](C)O)[C@@H](C)O)C(=O)N[C@@H](C)C(=O)N[C@@H](C)C(=O)N[C@@H](Cc1ccccc1)C(=O)N[C@@H](CC(C)C)C(=O)N[C@@H](C)C(=O)N[C@@H](CCCNC(=N)N)C(=O)N[C@@H](CO)C(N)=O [Example 6] (H-LSTAATARLAAFLARS-NH2)	nM	1.4

Source: patent US6087334A
